target: cathepsin G (Homo sapiens, UniProt P08311); construct: from tissue; host or cells: human leukocytes; assay: Inactivation of cathepsin G; type: biochemical; set-up: concentration or dose not given beside the values; details: Table XVI; after 5 min incubation
Sequence (P08311 21-255): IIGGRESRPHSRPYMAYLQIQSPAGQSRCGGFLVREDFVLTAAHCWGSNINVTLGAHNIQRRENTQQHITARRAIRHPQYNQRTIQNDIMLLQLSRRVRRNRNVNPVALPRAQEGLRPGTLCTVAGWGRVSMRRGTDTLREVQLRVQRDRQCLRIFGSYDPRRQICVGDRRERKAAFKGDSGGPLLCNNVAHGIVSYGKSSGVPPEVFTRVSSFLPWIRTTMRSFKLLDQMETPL
This listing pairs compounds with measured percentage of inhibition.
Numeric answer only, unit % assumed.

Example cases with answers are listed next.
{"Smiles Record": "CC(C)(C)OC(=O)N[C@@H](Cc1ccccc1)C(=O)Nc1ccc2c(Cl)c(OCCBr)oc(=O)c2c1", "Study System": "cathepsin G (Homo sapiens, UniProt P08311)", "percentage of inhibition [%]": 19}
{"Smiles Record": "C[C@H](NC(=O)Nc1ccc2c(Cl)c(OCCBr)oc(=O)c2c1)c1ccccc1", "Study System": "cathepsin G (Homo sapiens, UniProt P08311)", "percentage of inhibition [%]": 21}
{"Smiles Record": "O=C(NCc1ccccc1)Nc1ccc2c(Cl)c(OCCCBr)oc(=O)c2c1", "Study System": "cathepsin G (Homo sapiens, UniProt P08311)", "percentage of inhibition [%]": 21}
{"Smiles Record": "O=C(Nc1ccccc1)Nc1ccc2c(Cl)c(OCCCBr)oc(=O)c2c1", "Study System": "cathepsin G (Homo sapiens, UniProt P08311)", "percentage of inhibition [%]": 17}
{"Smiles Record": "O=C(NCc1ccccc1)Nc1ccc2c(Cl)c(OCCBr)oc(=O)c2c1", "Study System": "cathepsin G (Homo sapiens, UniProt P08311)", "percentage of inhibition [%]": 23}

Q. For the compound O=C(Cc1ccccc1)Nc1ccc2c(Cl)c(OCCCBr)oc(=O)c2c1 , what percentage of inhibition is on record?
A. 28

Q. Fill in: percentage of inhibition of CC(C)(C)OC(=O)N[C@H](Cc1ccccc1)C(=O)Nc1ccc2c(Cl)c(OCCBr)oc(=O)c2c1 is ___
A. 19

Q. Dear colleague, I am looking for the recorded percentage of inhibition of the following compound: O=C(Nc1ccc2c(Cl)c(OCCBr)oc(=O)c2c1)Nc1cccc2ccccc12
A. 22

Ref: patent US5324648A
